- assayTarget: T1, human TF ECD-His (hTF-his) (human, UniProt P13726 33-251)
- T1 construct: also called bio-hTF-his; human TF-His protein
- procedureText: SPR Biacore T200, antibody on Protein A chip, TF-His as analyte, 1:1 model
measurementName: Kd (nM)
Number only, in nM; omit the unit.

Exercise: Any idea what its Kd is? The binder is hu67-14 (antibody, human IgG1, kappa, V domains shown) VH: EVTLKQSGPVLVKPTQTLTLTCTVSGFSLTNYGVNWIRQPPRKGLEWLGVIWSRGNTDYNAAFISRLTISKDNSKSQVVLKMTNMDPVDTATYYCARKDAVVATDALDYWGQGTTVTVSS VL: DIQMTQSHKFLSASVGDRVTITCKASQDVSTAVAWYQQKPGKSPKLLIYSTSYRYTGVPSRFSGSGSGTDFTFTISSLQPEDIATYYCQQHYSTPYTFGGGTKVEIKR
Key: 20.1

Exercise: Moving on to hu67-2 (antibody, human IgG1, kappa, V domains shown) VH: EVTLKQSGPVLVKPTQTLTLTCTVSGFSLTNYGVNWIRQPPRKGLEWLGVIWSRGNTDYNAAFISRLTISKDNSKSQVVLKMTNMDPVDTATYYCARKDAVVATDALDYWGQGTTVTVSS VL: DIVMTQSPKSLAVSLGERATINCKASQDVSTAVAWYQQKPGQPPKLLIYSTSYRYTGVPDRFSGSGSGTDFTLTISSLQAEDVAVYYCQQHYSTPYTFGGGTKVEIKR
Key: 15.8

Next binder, please.
Exercise: Please report the recorded Kd for hu10H10-77 (antibody, V domains shown, H11+L9; Full-length IgG) VH: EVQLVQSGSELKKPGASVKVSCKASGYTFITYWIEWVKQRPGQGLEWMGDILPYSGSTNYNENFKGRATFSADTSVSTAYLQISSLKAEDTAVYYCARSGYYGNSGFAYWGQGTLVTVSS VL: DIQMTQSPSSLSASVGDRVTITCQSSQSLLSSGNQKNYLTWYQQKPGKAPKLLIYWASTRESGVPSRFSGSGSGTDFTLTISSLQPEDFATYYCQNDYTYPLTFGQGTKLEIK .
Key: 0.749
